Where do these numbers come from? They come from PubChem BioAssay (NCI).

// reported TGI per item
System: MALME-3M melanoma
Experiment: NCI tumour cell line growth inhibition, 48 h

// below: answered molecules
{"MOLECULE": "N#Cc1c(C(=O)c2ccccc2)cnn1-c1ccccc1", "PROPERTY_LABEL": "TGI", "RESULT": "> 25 µM"}
{"MOLECULE": "O=C1C(Cl)=C(Cl)C(=O)N1C1C2CC3CC(C2)CC1C3 (stereo not given)", "PROPERTY_LABEL": "TGI", "RESULT": "> 100 µM"}
{"MOLECULE": "O=C(NCCNCCO)N/N=C/c1ccccc1", "PROPERTY_LABEL": "TGI", "RESULT": "> 100 µM"}
{"MOLECULE": "CCOC(=O)/C(C1=N[C@H](C(=O)OCC)CS1)=C(\\O)c1ccccc1", "PROPERTY_LABEL": "TGI", "RESULT": "> 100 µM"}
{"MOLECULE": "CSc1nc2c(c(=O)[nH]1)N=C1c3ccccc3C(=O)C1C(c1ccc(F)cc1)N2 (stereo not given)", "PROPERTY_LABEL": "TGI", "RESULT": "> 100 µM"}
{"MOLECULE": "CCCCCCCCCCC[N+]1(Cc2ccccc2)CC2CCN(Cc3ccccc3)CC2C1 (stereo not given)", "PROPERTY_LABEL": "TGI", "RESULT": "1.26 µM"}

Incoming: Tell me TGI of O=C(/C=C/c1cccnc1)NCCCCC1CCN(C(=O)c2ccccc2)CC1 when tested on MALME-3M melanoma.
Outgoing: > 100 µM

Incoming: Tell me TGI of O=C1NC(=S)NC(=O)C1=Cc1cc2c(cc1[N+](=O)[O-])OCO2 when tested on MALME-3M melanoma.
Outgoing: > 100 µM

Incoming: Tell me TGI of Oc1ccc(O)c(Sc2nnc(CCCCCCCCc3nnc(Sc4cc(O)ccc4O)o3)o2)c1 when tested on MALME-3M melanoma.
Outgoing: > 100 µM

Incoming: Tell me TGI of NC(=O)c1cnc(N[C@@H]2CCCC[C@@H]2N)nc1Nc1cccc(-n2nccn2)c1 when tested on MALME-3M melanoma.
Outgoing: 10.4 µM
